Test system: Norovirus
experimental details: Inhibition of recombinant norovirus Norwalk binding to human HBGA A antigen by EIA
Type: functional
# reported EC50; entries follow
readout label: EC50 (µM)

INSERT INTO results (compound, target_or_test_system, readout_label, sign, result_number) VALUES
  ('O=C(/C=C/c1ccc(-c2cc(Cl)cc(Cl)c2)o1)c1cccs1', 'Norovirus', 'EC50', '>', 100),
  ('Cc1cc(O)c(Sc2c(O)cc(C)cc2C(C)(C)c2ccccc2)c(C(C)(C)c2ccccc2)c1', 'Norovirus', 'EC50', '>', 100),
  ('O=CC(=O)c1ccc2c(c1)Cc1cc(C(=O)C=O)ccc1-2', 'Norovirus', 'EC50', '>', 100),
  ('CCCc1ccc(OCc2ccc(C(=O)N/N=C/c3ccc(Cl)cc3O)o2)cc1', 'Norovirus', 'EC50', '=', 18.2),
  ('Oc1ccc(/C=N/c2nccs2)c(O)c1', 'Norovirus', 'EC50', '>', 100),
  ('Cc1ccc(NC(=O)CC(c2ccccc2)c2ccccc2)cc1C', 'Norovirus', 'EC50', '>', 100),
  ('CCOC(=O)C1=C(C)OC(N)=C(C#N)C1c1ccc(OCc2ccc(C)cc2)c([N+](=O)[O-])c1 (stereo not drawn)', 'Norovirus', 'EC50', '=', 22.9),
  ('O=C(C(=O)c1ccc(C(=O)c2ccc(C(=O)C(=O)c3ccc(Sc4ccccc4)cc3)cc2)cc1)c1ccc(Sc2ccccc2)cc1', 'Norovirus', 'EC50', '>', 100),
  ('CCCCc1ccc(NC(=O)c2ccc(C)cc2)cc1', 'Norovirus', 'EC50', '=', 53),
  ('CCCOc1ccc(-c2cc(C(=O)N/N=C/c3ccc(OCC)cc3)[nH]n2)cc1', 'Norovirus', 'EC50', '>', 100),
  ('C=C(SCCNC(=O)NCCCCCCNC(=O)NCCSc1ccccc1O)/C(C)=C\C', 'Norovirus', 'EC50', '=', 14.1),
  ('CCC[n+]1cc(-c2ccccc2)nc(N2CCOCC2)n1.[I-]', 'Norovirus', 'EC50', '=', 15.6),
  ('CC(C)OC(=O)CC(=O)CSc1nc(-c2ccc(F)cc2)cc(-c2cccs2)c1C#N', 'Norovirus', 'EC50', '=', 35);

---

System: Norovirus
experimental details: Inhibition of recombinant norovirus VA387 binding to human HBGA H antigen by EIA
Format: functional
pEC50: −log10 of the molar value.
readout label: pEC50

INSERT INTO assay_data (compound, target_or_test_system, sign, result_number) VALUES
  ('CCCc1ccc(OCc2ccc(C(=O)N/N=C/c3ccc(Cl)cc3O)o2)cc1', 'Norovirus', '=', 5.14),
  ('CCOC(=O)C1=C(C)OC(N)=C(C#N)C1c1ccc(OCc2ccc(C)cc2)c([N+](=O)[O-])c1 (stereo not given)', 'Norovirus', '=', 4.92),
  ('O=C(/C=C/c1ccc(-c2cc(Cl)cc(Cl)c2)o1)c1cccs1', 'Norovirus', '<', 4.00),
  ('Cc1ccc(NC(=O)CC(c2ccccc2)c2ccccc2)cc1C', 'Norovirus', '=', 4.32),
  ('CCCCc1ccc(NC(=O)c2ccc(C)cc2)cc1', 'Norovirus', '=', 4.55);

---

# reported solubility; entries follow
experimental details: Solubility of the compound
Assay type: physicochemical
readout label: solubility (µM)

INSERT INTO measurements (compound, readout_label, sign, result_number) VALUES
  ('CCCCc1ccc(NC(=O)c2ccc(C)cc2)cc1', 'solubility', '=', 400),
  ('CCOC(=O)C1=C(C)OC(N)=C(C#N)C1c1ccc(OCc2ccc(C)cc2)c([N+](=O)[O-])c1 (stereo not drawn)', 'solubility', '=', 400),
  ('CC(C)OC(=O)CC(=O)CSc1nc(-c2ccc(F)cc2)cc(-c2cccs2)c1C#N', 'solubility', '=', 400),
  ('Oc1ccc(/C=N/c2nccs2)c(O)c1', 'solubility', '=', 400),
  ('O=C(/C=C/c1ccc(-c2cc(Cl)cc(Cl)c2)o1)c1cccs1', 'solubility', '=', 400),
  ('CCC[n+]1cc(-c2ccccc2)nc(N2CCOCC2)n1.[I-]', 'solubility', '=', 400),
  ('C=C(SCCNC(=O)NCCCCCCNC(=O)NCCSc1ccccc1O)/C(C)=C\C', 'solubility', '=', 400),
  ('Cc1ccc(NC(=O)CC(c2ccccc2)c2ccccc2)cc1C', 'solubility', '>', 100),
  ('CCCOc1ccc(-c2cc(C(=O)N/N=C/c3ccc(OCC)cc3)[nH]n2)cc1', 'solubility', '>', 100),
  ('CCCc1ccc(OCc2ccc(C(=O)N/N=C/c3ccc(Cl)cc3O)o2)cc1', 'solubility', '=', 400),
  ('O=CC(=O)c1ccc2c(c1)Cc1cc(C(=O)C=O)ccc1-2', 'solubility', '=', 400),
  ('Cc1cc(O)c(Sc2c(O)cc(C)cc2C(C)(C)c2ccccc2)c(C(C)(C)c2ccccc2)c1', 'solubility', '=', 400),
  ('O=C(C(=O)c1ccc(C(=O)c2ccc(C(=O)C(=O)c3ccc(Sc4ccccc4)cc3)cc2)cc1)c1ccc(Sc2ccccc2)cc1', 'solubility', '=', 400);

---

# reported pEC50; entries follow
Tested on: Norovirus
experimental details: Inhibition of recombinant norovirus VA387 binding to human HBGA H antigen by EIA
Assay type: functional
pEC50: −log10 of the molar value.
readout label: pEC50

INSERT INTO assay_data (sample_smiles, readout_label, sign, result_number) VALUES
  ('Oc1ccc(/C=N/c2nccs2)c(O)c1', 'pEC50', '=', 5.12),
  ('CCCOc1ccc(-c2cc(C(=O)N/N=C/c3ccc(OCC)cc3)[nH]n2)cc1', 'pEC50', '<', 4.00),
  ('O=CC(=O)c1ccc2c(c1)Cc1cc(C(=O)C=O)ccc1-2', 'pEC50', '=', 4.39),
  ('C=C(SCCNC(=O)NCCCCCCNC(=O)NCCSc1ccccc1O)/C(C)=C\C', 'pEC50', '=', 4.85),
  ('Cc1cc(O)c(Sc2c(O)cc(C)cc2C(C)(C)c2ccccc2)c(C(C)(C)c2ccccc2)c1', 'pEC50', '=', 4.32);

---

System: Norovirus
experimental details: Inhibition of recombinant norovirus Norwalk binding to human HBGA H antigen by EIA
Type: functional
readout label: EC50 (µM)

INSERT INTO assay_data (compound, units_text, sign, result_number) VALUES
  ('O=C(/C=C/c1ccc(-c2cc(Cl)cc(Cl)c2)o1)c1cccs1', 'µM', '>', 100),
  ('Cc1cc(O)c(Sc2c(O)cc(C)cc2C(C)(C)c2ccccc2)c(C(C)(C)c2ccccc2)c1', 'µM', '>', 100),
  ('C=C(SCCNC(=O)NCCCCCCNC(=O)NCCSc1ccccc1O)/C(C)=C\C', 'µM', '=', 22.6),
  ('CCCOc1ccc(-c2cc(C(=O)N/N=C/c3ccc(OCC)cc3)[nH]n2)cc1', 'µM', '>', 100),
  ('O=C(C(=O)c1ccc(C(=O)c2ccc(C(=O)C(=O)c3ccc(Sc4ccccc4)cc3)cc2)cc1)c1ccc(Sc2ccccc2)cc1', 'µM', '>', 100),
  ('CCCc1ccc(OCc2ccc(C(=O)N/N=C/c3ccc(Cl)cc3O)o2)cc1', 'µM', '=', 36.3),
  ('Oc1ccc(/C=N/c2nccs2)c(O)c1', 'µM', '>', 100),
  ('CCC[n+]1cc(-c2ccccc2)nc(N2CCOCC2)n1.[I-]', 'µM', '=', 18.9),
  ('CCOC(=O)C1=C(C)OC(N)=C(C#N)C1c1ccc(OCc2ccc(C)cc2)c([N+](=O)[O-])c1 (stereo not drawn)', 'µM', '=', 24.5),
  ('CC(C)OC(=O)CC(=O)CSc1nc(-c2ccc(F)cc2)cc(-c2cccs2)c1C#N', 'µM', '=', 19.8),
  ('O=CC(=O)c1ccc2c(c1)Cc1cc(C(=O)C=O)ccc1-2', 'µM', '>', 100),
  ('Cc1ccc(NC(=O)CC(c2ccccc2)c2ccccc2)cc1C', 'µM', '>', 100),
  ('CCCCc1ccc(NC(=O)c2ccc(C)cc2)cc1', 'µM', '=', 47.8);

---

# reported log10(CC50); entries follow
experimental details: Cytotoxicity against HeLa cells by MTS assay
Type: cell-based
condition notes: human
readout label: log10(CC50) (log10 of the value in µM)

INSERT INTO measurements (compound, result_number) VALUES
  ('CCOC(=O)C1=C(C)OC(N)=C(C#N)C1c1ccc(OCc2ccc(C)cc2)c([N+](=O)[O-])c1 (stereo not drawn)', 1.90),
  ('CCCc1ccc(OCc2ccc(C(=O)N/N=C/c3ccc(Cl)cc3O)o2)cc1', 1.67),
  ('O=CC(=O)c1ccc2c(c1)Cc1cc(C(=O)C=O)ccc1-2', 1.72),
  ('Cc1ccc(NC(=O)CC(c2ccccc2)c2ccccc2)cc1C', 1.61),
  ('C=C(SCCNC(=O)NCCCCCCNC(=O)NCCSc1ccccc1O)/C(C)=C\C', 2.05),
  ('CC(C)OC(=O)CC(=O)CSc1nc(-c2ccc(F)cc2)cc(-c2cccs2)c1C#N', 2.34),
  ('O=C(C(=O)c1ccc(C(=O)c2ccc(C(=O)C(=O)c3ccc(Sc4ccccc4)cc3)cc2)cc1)c1ccc(Sc2ccccc2)cc1', 2.42),
  ('CCCCc1ccc(NC(=O)c2ccc(C)cc2)cc1', 2.26),
  ('CCC[n+]1cc(-c2ccccc2)nc(N2CCOCC2)n1.[I-]', 2.20),
  ('O=C(/C=C/c1ccc(-c2cc(Cl)cc(Cl)c2)o1)c1cccs1', 2.20),
  ('Oc1ccc(/C=N/c2nccs2)c(O)c1', 2.51),
  ('Cc1cc(O)c(Sc2c(O)cc(C)cc2C(C)(C)c2ccccc2)c(C(C)(C)c2ccccc2)c1', 1.85),
  ('CCCOc1ccc(-c2cc(C(=O)N/N=C/c3ccc(OCC)cc3)[nH]n2)cc1', 1.09);
